TGT: UniProt:Q72874
pKi: −log10 of the molar value.
Is pKi at least 7? Then label 1. If not, label 0.

[[record]]
item_smiles = "CC(=O)NCCCCCN1C(=O)N(CCCCCNC(C)=O)[C@H](Cc2ccccc2)[C@H](O)[C@@H](O)[C@H]1Cc1ccccc1"
group_label = "label 0"

[[record]]
item_smiles = "O=C1N(CCCCCO)[C@H](Cc2ccccc2)[C@H](O)[C@@H](O)[C@@H](Cc2ccccc2)N1Cc1ccc(CO)cc1"
group_label = "label 1"

[[record]]
item_smiles = "O=C1N(CCCCO)[C@H](Cc2ccccc2)[C@H](O)[C@@H](O)[C@@H](Cc2ccccc2)N1CCCCO"
group_label = "label 1"

[[record]]
item_smiles = "O=C(NCCCCCN1C(=O)N(CCCCCNC(=O)c2ccncc2)[C@H](Cc2ccccc2)[C@H](O)[C@@H](O)[C@H]1Cc1ccccc1)c1ccncc1"
group_label = "label 1"

[[record]]
item_smiles = "O=C1N(CCCO)[C@H](Cc2ccccc2)[C@H](O)[C@@H](O)[C@@H](Cc2ccccc2)N1CCCO"
group_label = "label 1"


* * *

pKi: −log10 of the molar value.
Quick record of pKi values for Human immunodeficiency virus type 1 protease (Human immunodeficiency virus 1).
PARAMETER_MEASURED: pKi

[[record]]
item_smiles = "NCCCCN1C(=O)N(CCCCN)[C@H](Cc2ccccc2)[C@H](O)[C@@H](O)[C@H]1Cc1ccccc1"
tgt = "Human immunodeficiency virus type 1 protease (Human immunodeficiency virus 1)"
reading = 5.90

[[record]]
item_smiles = "CCOC(=O)c1cccc(CN2C(=O)N(CCCCCO)[C@H](Cc3ccccc3)[C@H](O)[C@@H](O)[C@H]2Cc2ccccc2)c1"
tgt = "Human immunodeficiency virus type 1 protease (Human immunodeficiency virus 1)"
reading = 9.14

[[record]]
item_smiles = "O=C1N(CCCCCCCCO)[C@H](Cc2ccccc2)[C@H](O)[C@@H](O)[C@@H](Cc2ccccc2)N1CCCCCCCCO"
tgt = "Human immunodeficiency virus type 1 protease (Human immunodeficiency virus 1)"
reading = 6.30

[[record]]
item_smiles = "O=C(NCCCCCN1C(=O)N(CCCCCNC(=O)c2ccccc2)[C@H](Cc2ccccc2)[C@H](O)[C@@H](O)[C@H]1Cc1ccccc1)c1ccccc1"
tgt = "Human immunodeficiency virus type 1 protease (Human immunodeficiency virus 1)"
reading = 7.23

[[record]]
item_smiles = "O=C1N(CCCCCCO)[C@H](Cc2ccccc2)[C@H](O)[C@@H](O)[C@@H](Cc2ccccc2)N1Cc1ccc2ccccc2c1"
tgt = "Human immunodeficiency virus type 1 protease (Human immunodeficiency virus 1)"
reading = 8.77

[[record]]
item_smiles = "O=C1N(CCCCCO)[C@H](Cc2ccccc2)[C@H](O)[C@@H](O)[C@@H](Cc2ccccc2)N1CC1CC1"
tgt = "Human immunodeficiency virus type 1 protease (Human immunodeficiency virus 1)"
reading = 9.00

[[record]]
item_smiles = "NCCCCCN1C(=O)N(CCCCCN)[C@H](Cc2ccccc2)[C@H](O)[C@@H](O)[C@H]1Cc1ccccc1"
tgt = "Human immunodeficiency virus type 1 protease (Human immunodeficiency virus 1)"
reading = 5.90

